# tgt: cruzain (Trypanosoma cruzi)
# assay-remarks: biochemical;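 also: at 5 µM compound concentration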
# reported-conditions: 0’ (pre-incubation time); sheet "Screening results"
value-type: Cruzain 0’ Inhibition (%)
Numbers only, in %.

{"smiles-structure": "c1cc(C2=NCCN2)cc(-c2cc(-c3ccc(C4=NCCN4)cc3)no2)c1", "u": "%", "Cruzain 0’ Inhibition": 4.5}
{"smiles-structure": "Cc1ccccc1C(=O)N1NC(=Nc2ccccc2)SC1(C)C", "u": "%", "Cruzain 0’ Inhibition": 29}

Provide each entry's Cruzain 0’ Inhibition from the list below.
1. C[C@]1(COc2ccc(N3CCC(Oc4ccc(OC(F)(F)F)cc4)CC3)cc2)Cn2cc([N+](=O)[O-])nc2O1
2. CN1CCC(NCc2cccc(-c3ccc(S(=O)(=O)NCc4ccccc4)cc3)c2)CC1

1. -0.1
2. -2.3

* * *

# tgt: cruzain (Trypanosoma cruzi, UniProt P25779)
# Sequence (P25779 123-337 limits assumed): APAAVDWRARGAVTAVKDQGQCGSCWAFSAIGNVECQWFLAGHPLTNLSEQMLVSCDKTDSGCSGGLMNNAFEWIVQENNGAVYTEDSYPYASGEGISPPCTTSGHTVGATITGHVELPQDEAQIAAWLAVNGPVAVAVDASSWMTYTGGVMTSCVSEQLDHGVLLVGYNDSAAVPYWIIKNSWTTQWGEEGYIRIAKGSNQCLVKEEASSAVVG
# assay-remarks: biochemical
# reported-conditions: 0’ (pre-incubation time); sheet "Screening results"
value-type: Cruzain 0’ Inhibition (%)
Answers are plain numbers, in %.

For each of the molecules below, state Cruzain 0’ Inhibition.
1. Nc1ncc(Br)cc1-c1nc2cc(Cl)cnc2[nH]1 [MMV676358]
2. O=C(N[C@H](Cc1ccccc1)C(=O)Nc1ccccc1N1CCOCC1)c1cccs1 [MMV688845]
3. OCCc1ccc(Nc2nccc(-c3nnc4ccccn34)n2)cc1 [MMV028694]
4. Cc1cc(Cl)c(S(=O)(=O)N2CCCC2)cc1OCC(=O)NC1CCCCC1 [MMV006833]
5. COc1ccc(-c2cnc3ccc(NCc4ccc(S(N)(=O)=O)cc4)nn23)cn1 [MMV010545]

[-2.8, 1, 7, 3, 0.8]

* * *

Please respond with reported Cruzain 0’ Inhibition for every item in the list.
# tgt: cruzain (Trypanosoma cruzi)
# assay-remarks: biochemical
# reported-conditions: 0’ (pre-incubation time); sheet "Screening results"
Give bare numbers, in %.

A selection of reference data follows.
{"compound": "O=C(OCc1ccccc1)N1CCC(c2cc(-c3ccncc3)c(-c3ccc(F)cc3)[nH]2)CC1", "u": "%", "Cruzain 0’ Inhibition": -3.8}
{"compound": "COc1ccc(Oc2ccc([C@@H](C)N(C)c3ncc4c(N)nc(N)nc4n3)cc2)cc1", "u": "%", "Cruzain 0’ Inhibition": 0.4}
{"compound": "Nc1ccc(C(=O)Nc2ccc(-c3nc4ccccc4o3)cc2)cc1", "u": "%", "Cruzain 0’ Inhibition": 7}

State recorded Cruzain 0’ Inhibition for all listed compounds.
1. O=C1COCc2ccc(Br)cc2N1Cc1ccc(C(F)(F)F)cc1
2. O=C(c1ccc(NCCO)cc1)C1C[C@H]1c1ccc(Cl)cc1 (some centres unmarked)

-5
9

* * *

I'd appreciate it if you could supply Cruzain 10’ Inhibition values for the items below.
# tgt: cruzain (Trypanosoma cruzi)
# assay-remarks: biochemical
# reported-conditions: 10’ (pre-incubation time); sheet "Screening results"
Answers are plain numbers, in %.

Check out these entries, answers already filled in.
{"compound": "O=C(Nc1c(O)cccc1-c1nc2c(C(=O)O)cccc2o1)c1cc(-c2ccccc2)on1", "tgt": "cruzain (Trypanosoma cruzi)", "value-type": "Cruzain 10’ Inhibition", "quantitative-readout": 8}
{"compound": "COc1ccc(-c2onc(C(F)(F)F)c2-c2ccc(Cl)cc2)c(O)c1", "tgt": "cruzain (Trypanosoma cruzi)", "value-type": "Cruzain 10’ Inhibition", "quantitative-readout": -2.5}
{"compound": "O=C(C1CCN(c2cc(-n3cccc3)ncn2)CC1)N1CCc2ccccc2C1", "tgt": "cruzain (Trypanosoma cruzi)", "value-type": "Cruzain 10’ Inhibition", "quantitative-readout": -1.9}
{"compound": "COc1cc(C2=NCCN2)ccc1-c1cn(-c2cccc(C3=NCCN3)c2)nn1", "tgt": "cruzain (Trypanosoma cruzi)", "value-type": "Cruzain 10’ Inhibition", "quantitative-readout": 21}
{"compound": "CN1CCC(NCc2cccc(-c3ccc(S(=O)(=O)NCc4ccccc4)cc3)c2)CC1", "tgt": "cruzain (Trypanosoma cruzi)", "value-type": "Cruzain 10’ Inhibition", "quantitative-readout": 29}

Consider the following items and state reported Cruzain 10’ Inhibition for each.
1. O=C(Nc1ccccc1)c1ccc(-c2cc3ccncc3cc2OC2CCNCC2)s1
2. O=C(Nc1cccc(-c2ccc(NCCCN3CCCC3)nc2)c1)c1ccccc1
3. COc1cc(OC)cc(C(=O)NCC2Cc3cc(Cl)cc(-c4ccncc4)c3O2)c1 (stereo not drawn)
4. CC(C(=O)N1CCCC1)N1CCN(S(=O)(=O)c2ccc(C(C)(C)C)cc2)CC1 (stereo not drawn)

1: -6.5; 2: 11; 3: 6; 4: 6
